Hey, just so you know, these numbers are from ChEMBL document CHEMBL5247641.

MEASUREMENT NOTES: Metabolic stability in human liver microsomes assessed as half life in presence of NADPH incubated up to 60 mins by LC-MS/MS analysis
Format: ADME, Microsome
READOUT TYPE: half-life (h)
Numeric only. Scale: h

Enquiry: Give the value of half-life reported for the following: "Cl.O=C(c1ccc(Nc2ncc(F)c(-c3ccc4scnc4c3)n2)nc1)N1CCNCC1"
Return: 1.3

---

SYSTEM NAME: Dual specificity tyrosine-phosphorylation-regulated kinase 2 (Homo sapiens, UniProt Q92630)
Sequence (Q92630 whole entry): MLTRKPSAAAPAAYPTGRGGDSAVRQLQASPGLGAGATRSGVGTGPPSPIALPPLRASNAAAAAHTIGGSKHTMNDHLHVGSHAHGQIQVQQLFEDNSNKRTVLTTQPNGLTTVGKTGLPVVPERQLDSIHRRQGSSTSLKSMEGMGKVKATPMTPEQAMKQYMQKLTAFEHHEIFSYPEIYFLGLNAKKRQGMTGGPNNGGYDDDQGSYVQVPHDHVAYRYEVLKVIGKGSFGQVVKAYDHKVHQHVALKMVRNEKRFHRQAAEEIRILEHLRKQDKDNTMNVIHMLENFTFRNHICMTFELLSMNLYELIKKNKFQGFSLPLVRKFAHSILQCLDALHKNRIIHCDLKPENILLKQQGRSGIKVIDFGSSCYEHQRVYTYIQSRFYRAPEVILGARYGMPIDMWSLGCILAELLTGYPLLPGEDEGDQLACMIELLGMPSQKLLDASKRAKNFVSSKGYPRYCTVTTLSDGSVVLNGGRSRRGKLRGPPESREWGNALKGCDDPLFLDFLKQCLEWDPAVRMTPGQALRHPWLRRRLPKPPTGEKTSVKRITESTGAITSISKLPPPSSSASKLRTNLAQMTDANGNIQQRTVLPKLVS
MEASUREMENT NOTES: Inhibition of human GST-tagged DYRK2 expressed in Escherichia coli BL21 (DE3) using woodtide as substrate in presence of [gamma33-P]ATP incubated for 30 mins by Scintillation counter analysis
READOUT TYPE: pIC50
In simple prose, pIC50 is minus the logarithm base ten of a concentration in moles per litre.

Enquiry: Give the value of pIC50 reported for the following: "COc1cc(/C=C/C(=O)CC(=O)/C=C/c2ccc(O)c(OC)c2)ccc1O"
Return: 8.60

---

MEASUREMENT NOTES: Metabolic stability in human liver microsomes assessed as intrinsic clearance in presence of NADPH incubated up to 60 mins by LC-MS/MS analysis
Format: ADME, Microsome
RECORDED CONDITIONS: read-out: CLH
READOUT TYPE: CLint scaled

Enquiry: Give the value of CLint scaled reported for the following: "Cl.O=C(c1ccc(Nc2ncc(F)c(-c3ccc4scnc4c3)n2)nc1)N1CCNCC1"
Return: 16 mL/min/kg

---

MEASUREMENT NOTES: Cytotoxicity against human RWPE-1 cells assessed as inhibition of cell proliferation incubated for 3 days by CCK-8 assay
Type: toxicity, cell-based
READOUT TYPE: IC50 at 3 days
Units required after the number.

Enquiry: Give the value of IC50 at 3 days reported for the following: "Cl.O=C(c1ccc(Nc2ncc(F)c(-c3ccc4scnc4c3)n2)nc1)N1CCNCC1"
Return: 25 µM

---

MEASUREMENT NOTES: Thermodynamic water solubility of compound by HPLC anlaysis
Type: physicochemical
RECORDED CONDITIONS: read-out: Therm_solubility
READOUT TYPE: solubility thermodynamic (mg/mL)
Numeric only. Scale: mg/mL

Enquiry: Give the value of solubility thermodynamic reported for the following: "Cl.O=C(c1ccc(Nc2ncc(F)c(-c3ccc4scnc4c3)n2)nc1)N1CCNCC1"
Return: 29.5
